SYSTEM_UNDER_TEST: human leukocyte cathepsin G (hCG) (Homo sapiens, UniProt P08311)
Construct: Neutrophils (1.4 billion) were isolated from whole blood obtained from a single healthy laboratory donor; from tissue; host or cells: neutrophils from whole blood of a single healthy donor
Sequence (P08311 21-244 limits assumed): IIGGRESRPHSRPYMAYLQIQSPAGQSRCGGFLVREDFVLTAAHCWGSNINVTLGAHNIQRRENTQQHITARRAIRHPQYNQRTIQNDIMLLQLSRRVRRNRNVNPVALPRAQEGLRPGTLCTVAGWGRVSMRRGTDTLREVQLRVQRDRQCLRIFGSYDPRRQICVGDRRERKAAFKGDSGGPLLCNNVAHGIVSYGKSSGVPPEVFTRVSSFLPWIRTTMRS
TEST_DESCRIPTION: In-vitro inhibition of hCG (conversion of Suc-AAPF-NA)
Assay type: biochemical
No end group written: not given here.
Parameter log10 Ki: see the listing below.
MEASURED_METRIC: log10 Ki (log10 of the value in µM)

- SUBSTANCE: "H-VTVAPVHI-OH [Peptide 1, Val89-Thr-Val-Ala-Pro-Val-His-Ile96]"
  OBS_VALUE: 3.15
- SUBSTANCE: "SFTVGGSEILFEVPEVTVAPVHICTSWESA [Peptide 3b]"
  OBS_VALUE: 2.30
- SUBSTANCE: "SFTVGGSEILFEVPEVTVAPVHI [Peptide 3]"
  OBS_VALUE: 2.70
- SUBSTANCE: "DIGYSFTVGGSEILFEVPEVTVAPVHICT [Peptide 3c]"
  OBS_VALUE: 1.34
- SUBSTANCE: "GSEILFEVPEVTVAPVHI [Peptide 2]"
  OBS_VALUE: 3.08
- SUBSTANCE: "SFTVGGSEILFEVPEVTVAPVHICT [Peptide 3a]"
  OBS_VALUE: 2.26

====

SYSTEM_UNDER_TEST: human leukocyte cathepsin G (hCG) (Homo sapiens)
Construct: Neutrophils (1.4 billion) were isolated from whole blood obtained from a single healthy laboratory donor; from tissue; host or cells: neutrophils from whole blood of a single healthy donor
TEST_DESCRIPTION: In-vitro inhibition of hCG (conversion of Suc-AAPF-NA)
Format: biochemical
Experimental: The enzymatic activity was assayed with MeOSuc-AAPV-NA for hLE determination and Suc-AAPF-NA for hCG determination (both in 100 mM Hepes buffer, pH 7.4, containing 0.05% of the anionic detergent Brij-35). […] Similar conditions to hLE inhibition experiments ere used except the substrate: 80 μL of 1.8 mM Suc-AAPF-NA. The enzyme was issolved in 800 μL buffer, and the reaction was monitored every 6 min for 1 hour. […]
Starred links: 1 amine or outer side, 2 acyl side, 3 side chain; linkers in the order of their positions; H or OH if unused. Residues, ends and D or L forms follow the SMILES beside them. *: point of attachment. Fmoc = O=C(OCC1c2ccccc2-c2ccccc21)*; NH(1-naphthyl) = c1ccc2c(N*)cccc2c1; MeOSuc = COC(=O)CCC(=O)*; Cbz = O=C(OCc1ccccc1)*; CO = O=C([*:1])[*:2]
MEASURED_METRIC: Ki (µM)

- MOLECULE: "CC[C@H](C)[C@H](NC(=O)[C@H](Cc1c[nH]cn1)NC(=O)[C@@H](NC(=O)[C@@H]1CCCN1C(=O)[C@H](C)NC(=O)[C@@H](NC(=O)[C@@H](NC(=O)[C@@H](NC(=O)[C@H](Cc1ccccc1)NC(=O)CCC(=O)OC)C(C)C)[C@@H](C)O)C(C)C)C(C)C)C(=O)O [Peptide 16] (MeOSuc-FVTVAPVHI-OH)"
  RESULT_UNITS: "µM"
  OBS_VALUE: 100
- MOLECULE: "CC[C@H](C)[C@H](NC(=O)[C@H](Cc1c[nH]cn1)NC(=O)[C@@H](NC(=O)[C@@H]1CCCN1C(=O)[C@H](C)NC(=O)[C@@H](NC(=O)[C@@H](NC(=O)[C@@H](NC(=O)[C@H](Cc1ccccc1)NC(=O)OCc1ccccc1)C(C)C)[C@@H](C)O)C(C)C)C(C)C)C(=O)O [Peptide 21] (Cbz-FVTVAPVHI-OH)"
  RESULT_UNITS: "µM"
  OBS_VALUE: 430
- MOLECULE: "CC[C@H](C)[C@H](NC(=O)[C@H](Cc1c[nH]cn1)NC(=O)[C@@H](NC(=O)[C@@H]1CCCN1C(=O)[C@H](C)NC(=O)[C@@H](NC(=O)[C@@H](NC(=O)[C@@H](NC(=O)OCC1c2ccccc2-c2ccccc21)C(C)C)[C@@H](C)O)C(C)C)C(C)C)C(=O)O [Peptide 23, Fmoc-Val89-Thr-Val-Ala-Pro-Val-His-Ile96] (Fmoc-VTVAPVHI-OH)"
  RESULT_UNITS: "µM"
  OBS_VALUE: 280
- MOLECULE: "CC[C@H](C)[C@H](NC(=O)[C@H](Cc1c[nH]cn1)NC(=O)[C@@H](NC(=O)[C@@H]1CCCN1C(=O)[C@H](C)NC(=O)[C@@H](NC(=O)[C@@H](NC(=O)[C@@H](NC(=O)Nc1cccc2ccccc12)C(C)C)[C@@H](C)O)C(C)C)C(C)C)C(=O)O [Peptide 18] ({NH(1-naphthyl)-CO}-VTVAPVHI-OH)"
  RESULT_UNITS: "µM"
  OBS_VALUE: 300
